Target: T1, human CD30 CRD6 (E282-K379) Fc fusion protein with human IgG1 Fc fragment at the C terminus (human)
T1 construct: also called CRD6 construct
T1 sequence (chain, as listed by the source limits assumed): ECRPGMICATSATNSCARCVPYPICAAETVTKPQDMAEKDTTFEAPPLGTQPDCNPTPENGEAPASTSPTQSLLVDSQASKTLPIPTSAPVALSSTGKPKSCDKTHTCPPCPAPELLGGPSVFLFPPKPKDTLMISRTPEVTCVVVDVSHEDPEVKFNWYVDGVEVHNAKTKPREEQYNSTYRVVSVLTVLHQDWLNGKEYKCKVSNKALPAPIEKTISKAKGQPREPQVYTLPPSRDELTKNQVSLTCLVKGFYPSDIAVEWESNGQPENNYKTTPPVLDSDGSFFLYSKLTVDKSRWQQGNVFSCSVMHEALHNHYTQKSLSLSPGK
Test: ELISA on the CD30 fragment CRD6, absorbance OD 450 nm; sdAb concentration not given
Readout name: binding result

Example cases with answers are listed next.
AS54233 sdAb (VHH, Camel sdAb) VHH: QVQLVESGGGSVQAGETLRLSCTASGFTFDGPDMAWYRQAPGNECELVSIISADGRTYYTDSVKGRFTASQDNAKNTVSLYLKSLQPEDTAVYYCAADPRRNCRGNCCGNWGPGTQVTVSS ... binds
AS48542 sdAb (VHH, Camel sdAb) VHH: QMQLVESGGGSVQAGETLRLSCTTSAFTFDGPDMAWYRQAPGNECVLVSIISADGRTYYADSVKGRFTISRDNAKNTVFLNLNSLQPEDTAVYYCALDPRKNCRGGYCCANWGPGTQVTVSS ... binds
AS47863 sdAb (VHH, Camel sdAb) VHH: QVQLEESGGGSVQAGETLRLSCTASGSTFGDSDMGWYRQAPGNACELVSIISSDGRTYYVDSVKGRFTISQDNAVSTVYLQMNSLKPEDTGVYYCAADLRQYCRDGRCCGYWGQGTQVTVSS ... binds
AS48508 sdAb (VHH, Camel sdAb) VHH: EVQLVESGGGSVQAGGSLRLSCTASRFTFDGPDMAWYRQAPGNACELVSIISADGRTYYTDSVKGRFTISRDNAKNTVFLYLNSLQPEDTAVYYCAPDPRRNCRGGYCCGNWGPGTQVTVSS ... binds
AS48463 sdAb (VHH, Camel sdAb) VHH: QVHLMESGGGSVQAGETLRLSCTASGFTFANSDMGWYRQAPGNACELVSIISSHGGTTYYVDSVKGRFTISRHNAENTVYLRMTSLKPEDTALYYCVADPRSNCRGGYCCGYWGPGTQVTVSS ... binds
AS48433 sdAb (VHH, Camel sdAb) VHH: QIQLVESGGGSVQAGETLRLSCTASGSTFGDSDMGWYRQAPGNACELVSIISSDGRTYYVDSVKGRFTISQDNAVSTVYLQMNSLNPEDTGVYYCAADLRLNCRDGRCCGYWGQGTQVTVSS ... binds

Then there is this binder:
The reported value for AS53750 sdAb (VHH, Camel sdAb) VHH: EVQLVESGGGLVQPGGSLRLSCTASGFTDDGPDMAWYRRAPGNECELVSIISADGRTYYTDSVKGRFTISRDNAKNTVFLYLNSLQPEDTAVYYCAPDPRRNCRGGDCCGNWGPGTQVTVSS in terms of binding result is binds
